assay: Antioxidant activity assessed as trolox equivalent of […]-induced radical scavenging activity at 1 to 10 uM pretreated for 15 mins followed by […] addition measured at 1 min interval for 90 mins by ORAC-FL assay; assay type: functional
Class (by Activity) -- category 1 = under 0.8 equiv, category 2 = from 0.8 equiv up to 2 equiv, category 3 = 2 equiv and over

Pick a category. Item: COc1ccc(/C=C/C(=O)c2cc(-c3ccc(C(C)C(=O)O)cc3F)ccc2O)cc1OC (centres undefined)
category 2

Pick a category. Item: CC(C(=O)O)c1ccc(-c2ccc(O)c(C(=O)/C=C/c3ccc(N(C)C)cc3)c2)c(F)c1 (centres undefined)
category 3

Pick a category. Item: CC(C(=O)O)c1ccc(-c2ccc(O)c(C(=O)/C=C/c3ccccc3O)c2)c(F)c1 (centres undefined)
category 3

Pick a category. Item: CC(C(=O)O)c1ccc(-c2ccccc2)c(F)c1 (centres undefined) [FLURBIPROFEN]
category 1

Pick a category. Item: CC(C(=O)O)c1ccc(-c2ccc(O)c(C(=O)/C=C/c3ccc(N4CCCCC4)cc3)c2)c(F)c1 (centres undefined)
category 2

Pick a category. Item: CC(C(=O)O)c1ccc(-c2ccc(O)c(C(=O)/C=C/c3ccccc3N(C)C)c2)c(F)c1 (centres undefined)
category 1

Pick a category. Item: COc1ccccc1/C=C/C(=O)c1cc(-c2ccc(C(C)C(=O)O)cc2F)ccc1O (centres undefined)
category 2

Pick a category. Item: COc1ccc(/C=C/C(=O)c2cc(-c3ccc(C(C)C(=O)O)cc3F)ccc2O)cc1 (centres undefined)
category 1
